Source of measurements: patent US20210246200A1

- Experimental system: T1, Proleukin® (aldesleukin) (human, UniProt P60568 21-153, limits assumed)
- T1 construct: Variant of human wt IL-2 with C145S (C125S on mature IL-2); also called IL-2 (Proleukin®); human IL-2 (Proleukin)
- T1 sequence (P60568 other isoform, or with tags, fused parts or gaps limits assumed): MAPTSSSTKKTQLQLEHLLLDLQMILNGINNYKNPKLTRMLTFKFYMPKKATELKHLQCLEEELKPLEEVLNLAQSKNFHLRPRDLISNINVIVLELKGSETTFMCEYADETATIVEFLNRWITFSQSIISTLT
- Assay text: ELISA, coated Proleukin, serially diluted supernatant
Please respond with reported pEC50 for every item in the list.
Remember, pEC50 is on a log scale: it is -log10 of the molar concentration.

q: Query (binder): Antibody No: 19 (antibody, human IgG1, kappa, N297A, V domains shown, VK A50T; HEK293F supernatant) VH: EVQLVQSGAEVKKPGESLKISCKGSGYAFTNYLIEWVRQMPGKGLEWMGVINPGSGGTYYNEKFKGQVTISADKSISTAYLQWSSLKASDTAMYYCARWRGEGYYAYYDVWGQGTTVTVSS VL: AIRLTQSPSSFSASTGDRVTITCKASQSVDYQGDSYMNWYQQKPGKAPKLLIYTASNLESGVPSRFSGSGSGTDFTLTISSLQSEDFATYYCQQSNEDPYTFGGGTKVEIKR ; field requested: pEC50
a: 9.30

q: Query (binder): Antibody No: 23 (antibody, human IgG1, kappa, N297A, V domains shown, VK A50S; HEK293F supernatant) VH: EVQLVQSGAEVKKPGESLKISCKGSGYAFSNYLIEWVRQMPGKGLEWMGVINPGSGGTNYNEKFKGQVTISADKSISTAYLQWSSLKASDTAMYYCARWRGEGYYAYYDVWGQGTTVTVSS VL: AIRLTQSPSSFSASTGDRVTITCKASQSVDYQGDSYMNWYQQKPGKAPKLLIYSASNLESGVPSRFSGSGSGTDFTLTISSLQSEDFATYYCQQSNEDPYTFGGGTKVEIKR ; field requested: pEC50
a: 9.59

q: Query (binder): Antibody No: 17 (antibody, human IgG1, kappa, N297A, V domains shown, VK M33L; HEK293F supernatant) VH: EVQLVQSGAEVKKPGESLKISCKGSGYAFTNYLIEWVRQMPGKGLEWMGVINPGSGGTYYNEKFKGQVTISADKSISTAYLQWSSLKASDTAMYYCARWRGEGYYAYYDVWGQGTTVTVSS VL: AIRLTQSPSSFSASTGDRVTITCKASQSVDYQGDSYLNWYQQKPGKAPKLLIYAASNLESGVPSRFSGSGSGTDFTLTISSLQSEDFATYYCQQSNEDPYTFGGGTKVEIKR ; field requested: pEC50
a: 8.86

q: Query (binder): Antibody No: 18 (antibody, human IgG1, kappa, N297A, V domains shown, VK A50S; HEK293F supernatant) VH: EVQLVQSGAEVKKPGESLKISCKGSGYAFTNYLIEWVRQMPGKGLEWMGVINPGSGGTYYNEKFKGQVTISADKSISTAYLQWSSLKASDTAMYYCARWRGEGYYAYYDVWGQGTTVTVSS VL: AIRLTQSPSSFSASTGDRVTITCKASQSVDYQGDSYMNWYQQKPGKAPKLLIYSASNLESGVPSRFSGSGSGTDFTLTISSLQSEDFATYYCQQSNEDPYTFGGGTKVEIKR ; field requested: pEC50
a: 9.27

q: Query (binder): Antibody No: 22 (antibody, human IgG1, kappa, N297A, V domains shown, VK M33L; HEK293F supernatant) VH: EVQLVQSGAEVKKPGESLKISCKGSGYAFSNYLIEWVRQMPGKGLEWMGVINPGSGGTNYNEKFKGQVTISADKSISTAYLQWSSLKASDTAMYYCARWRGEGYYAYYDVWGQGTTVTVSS VL: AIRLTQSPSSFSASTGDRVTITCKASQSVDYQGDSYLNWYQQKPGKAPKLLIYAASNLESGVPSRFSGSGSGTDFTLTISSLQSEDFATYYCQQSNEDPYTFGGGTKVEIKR ; field requested: pEC50
a: 9.37
